# target-of-assay: HIV-1 protease (Human immunodeficiency virus, UniProt O90785)
# Sequence (O90785 whole entry): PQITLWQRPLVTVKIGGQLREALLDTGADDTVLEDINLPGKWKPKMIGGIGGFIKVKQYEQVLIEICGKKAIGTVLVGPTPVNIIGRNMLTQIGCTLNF
# assay-name: Inhibition Assay
# experimental-setup: pH 5.6; 37 °C
# Text: Inhibition of HIV-protease activity for selected acids at P3-P3' positions.
metric-name: IC50 (nM)
API: value field is a number in nM; no unit string.

Below are worked cases with known answers.
[
  {
    "compound": "CC(C)[C@H](NC(=O)c1cc(O)c2ccccc2n1)C(=O)N[C@@H](Cc1ccccc1)[C@@H](O)[C@H](O)[C@H](Cc1ccccc1)NC(=O)[C@@H](NC(=O)c1cc(O)c2ccccc2n1)C(C)C [P3-P3' Entry 4]",
    "measurement-units": "nM",
    "IC50": 19
  },
  {
    "compound": "CC(C)[C@H](NC(=O)COc1ccc2ccccc2c1)C(=O)N[C@@H](Cc1ccccc1)[C@@H](O)[C@H](O)[C@H](Cc1ccccc1)NC(=O)[C@@H](NC(=O)COc1ccc2ccccc2c1)C(C)C [P3-P3' Entry 7]",
    "measurement-units": "nM",
    "IC50": 10
  }
]

Next compound, please.
Q) Looking for the measured IC50 of CC(C)[C@H](NC(=O)c1ccc(-c2ccc([N+](=O)[O-])cc2)o1)C(=O)N[C@@H](Cc1ccccc1)[C@@H](O)[C@H](O)[C@H](Cc1ccccc1)NC(=O)[C@@H](NC(=O)c1ccc(-c2ccc([N+](=O)[O-])cc2)o1)C(C)C [P3-P3' Entry 8] , can you help?
A) 6

====

Reported pIC50, HIV-1 protease (Human immunodeficiency virus, UniProt O90785).
Remember, pIC50 is on a log scale: it is -log10 of the molar concentration.

Q) Enter reported pIC50 observed with HIV-1 protease (Human immunodeficiency virus, UniProt O90785) for `CC(C)[C@H](NC(=O)CCc1c[nH]c2ccccc12)C(=O)N[C@@H](Cc1ccccc1)[C@@H](O)[C@H](O)[C@H](Cc1ccccc1)NC(=O)[C@@H](NC(=O)CCc1c[nH]c2ccccc12)C(C)C`
A) 8.00

Q) Enter reported pIC50 observed with HIV-1 protease (Human immunodeficiency virus, UniProt O90785) for `CC(C)[C@H](NC(=O)c1ccc([N+](=O)[O-])o1)C(=O)N[C@@H](Cc1ccccc1)[C@@H](O)[C@H](O)[C@H](Cc1ccccc1)NC(=O)[C@@H](NC(=O)c1ccc([N+](=O)[O-])o1)C(C)C`
A) 7.70

====

Reported IC50, HIV-1 protease (Human immunodeficiency virus).

[
  {
    "substance-smiles": "CC(C)[C@H](NC(=O)c1ccc(-c2c(Cl)cc([N+](=O)[O-])cc2Cl)o1)C(=O)N[C@@H](Cc1ccccc1)[C@@H](O)[C@H](O)[C@H](Cc1ccccc1)NC(=O)[C@@H](NC(=O)c1ccc(-c2c(Cl)cc([N+](=O)[O-])cc2Cl)o1)C(C)C",
    "IC50": "> 50 nM"
  }
]

Q) Enter reported IC50 observed with HIV-1 protease (Human immunodeficiency virus) for `CC(C)[C@H](NC(=O)c1ccc(-c2ccc(Cl)cc2)o1)C(=O)N[C@@H](Cc1ccccc1)[C@@H](O)[C@H](O)[C@H](Cc1ccccc1)NC(=O)[C@@H](NC(=O)c1ccc(-c2ccc(Cl)cc2)o1)C(C)C`
A) 10 nM

Q) Enter reported IC50 observed with HIV-1 protease (Human immunodeficiency virus) for `CC(C)[C@H](NC(=O)c1ccc(C(=O)c2ccccc2)o1)C(=O)N[C@@H](Cc1ccccc1)[C@@H](O)[C@H](O)[C@H](Cc1ccccc1)NC(=O)[C@@H](NC(=O)c1ccc(C(=O)c2ccccc2)o1)C(C)C`
A) 10 nM

Q) Enter reported IC50 observed with HIV-1 protease (Human immunodeficiency virus) for `CC(C)[C@H](NC(=O)CCCc1c[nH]c2ccccc12)C(=O)N[C@@H](Cc1ccccc1)[C@@H](O)[C@H](O)[C@H](Cc1ccccc1)NC(=O)[C@@H](NC(=O)CCCc1c[nH]c2ccccc12)C(C)C`
A) 14 nM
